Entries and their Potency
experiment: Cell Viability - HepG2 (AID 433); conditions: qHTS;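 further: potency means the concentration at half of the fitted maximal effect; cells exposed to compound for 40 hours; potency for ATP loss meaning cytotoxicity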
Results filed as inconclusive are left out. Calls of active or inactive are those of the source. The call rests on the fitted dose curve.

| CPD_SMILES | Potency |
| --- | --- |
| CC(C)O | > 92 µM (inactive) |
| ClC(Cl)Cl | > 92 µM (inactive) |
| [O-][N+](=Nc1ccccc1)c1ccccc1 | > 92 µM (inactive) |

----------
test: Cell Viability - LYMP2-002 (AID 977); conditions: LYMP2-002 lymphoblastoid cell viability, qHTS; series mostly up to 92.2 µM;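 further: compound exposure lasted 24 h at 37 °C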
Records with an inconclusive call do not appear. Calls of active or inactive are those of the source. The call rests on the fitted dose curve; in most records, active means well fitted cell-killing curve with a large enough effect; inconclusive means small, poorly fitted or top-dose-only effect; inactive means flat fitted curve, though single readings scatter.

| CPD_SMILES | outcome |
| --- | --- |
| CC1=CC(=O)NS(=O)(=O)O1 | inactive |
| [O-][N+](=Nc1ccccc1)c1ccccc1 | inactive |
| COC(=O)c1ccccc1O | inactive |
| CCCCC | inactive |
| OCl | inactive |
| CO/N=C(/C(=O)N[C@@H]1C(=O)N2C(C(=O)O)=C(COC(N)=O)CS[C@H]12)c1ccco1 | inactive |
| CC(C)(C)CC(C)(C)c1ccc(OCCO)cc1 | inactive |
| CCCCO | inactive |
